system: Plasminogen (Homo sapiens)
Sequence (P00747 97-580 limits assumed): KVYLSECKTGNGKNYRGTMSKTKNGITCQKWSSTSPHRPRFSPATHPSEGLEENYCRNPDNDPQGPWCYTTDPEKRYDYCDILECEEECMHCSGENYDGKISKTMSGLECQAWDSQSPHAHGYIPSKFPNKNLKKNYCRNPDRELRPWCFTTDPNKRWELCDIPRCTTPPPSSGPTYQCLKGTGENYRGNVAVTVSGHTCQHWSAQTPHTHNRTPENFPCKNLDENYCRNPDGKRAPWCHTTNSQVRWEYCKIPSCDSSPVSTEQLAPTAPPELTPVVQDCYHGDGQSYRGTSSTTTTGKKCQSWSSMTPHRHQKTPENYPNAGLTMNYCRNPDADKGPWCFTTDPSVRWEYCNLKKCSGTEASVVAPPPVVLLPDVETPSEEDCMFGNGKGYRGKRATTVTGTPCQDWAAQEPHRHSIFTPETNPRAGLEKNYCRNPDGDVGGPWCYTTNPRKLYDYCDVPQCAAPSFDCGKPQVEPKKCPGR
Sequence (P00747 581-810 limits assumed): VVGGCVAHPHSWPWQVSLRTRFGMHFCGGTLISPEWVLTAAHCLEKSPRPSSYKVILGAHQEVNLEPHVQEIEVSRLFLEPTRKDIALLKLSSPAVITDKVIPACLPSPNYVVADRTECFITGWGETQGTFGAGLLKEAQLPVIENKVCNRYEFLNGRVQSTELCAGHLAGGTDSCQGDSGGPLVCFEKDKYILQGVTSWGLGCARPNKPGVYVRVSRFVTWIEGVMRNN
experimental.details: In vitro inhibitory activity against plasmin
pIC50: −log10 of the molar value.
pIC50 for assorted molecules
assay.endpoint: pIC50

>>> print(df.to_string())
                                   molecule  assay_endpoint  assay_value
0  CN(CC(=O)N[C@H]1CCCC(C(=N)N)C1O)C(=O)[C@@H](CCCN=C(N)N)NS(=O)(=O)Cc1ccccc1 (some centres undefined)           pIC50         5.92
1  CCOC(=O)CNC(=O)C(=O)[C@H](Cc1ccc(OC(C)(C)C)cc1)NC(=O)CN(C)C(=O)[C@@H](CCCN=C(N)N)NS(=O)(=O)Cc1ccccc1.O=C(O)C(F)(F)F           pIC50       < 5.60
2  CCCCCNC(=O)C(=O)[C@H](CC1CCCCC1)NC(=O)CN(C)C(=O)[C@@H](CCCN=C(N)N)NS(=O)(=O)Cc1ccccc1           pIC50       < 5.60
3  CN(CC(=O)N[C@@H](CC1CCCCC1)C(=O)C(=O)NCc1ccccc1)C(=O)[C@@H](CCCN=C(N)N)NS(=O)(=O)Cc1ccccc1           pIC50       < 5.60
